# experiment-summary: Pharmacokinetic study in rats: plasma 2C-B after IV/PO 2C-B or PO 2C-B prodrugs
# cond: male, Sprague-Dawley, rat, plasma, iv, 1 mg/kg, T1/2, 2C-B dosed IV 1 mg/kg, male SD rats, analyte 2C-B in plasma, individual animals
property-measured: half-life (min)
Numbers only, in min.

The value of half-life measured for the compound `COc1cc(CCN)c(OC)cc1Br` turned out to be 27.3

* * *

# experiment-summary: Pharmacokinetic study in rats: plasma 2C-B after IV/PO 2C-B or PO 2C-B prodrugs
# cond: male, Sprague-Dawley, rat, plasma, po, 5 mg/kg, Cmax, 2C-B dosed oral 5 mg/kg, male SD rats, analyte 2C-B in plasma, individual animals
property-measured: Cmax (µg/mL)
One number for each entry, in µg/mL.

According to the records, this compound `COc1cc(CCN)c(OC)cc1Br` displays Cmax of 0.0301
